# assay name: in vitro
# condition context: plasma
measured property: half-life

# compound `Cc1ccc(C(=O)N2CCC(c3ccc(C#N)cc3)CC2)cc1-c1nc2cc(N3CCCC3)ncc2[nH]1` ; its half-life = > 10 h

###

# tested system: Fatty acid synthase (Rattus norvegicus, UniProt P12785)
# Sequence (P12785 whole entry): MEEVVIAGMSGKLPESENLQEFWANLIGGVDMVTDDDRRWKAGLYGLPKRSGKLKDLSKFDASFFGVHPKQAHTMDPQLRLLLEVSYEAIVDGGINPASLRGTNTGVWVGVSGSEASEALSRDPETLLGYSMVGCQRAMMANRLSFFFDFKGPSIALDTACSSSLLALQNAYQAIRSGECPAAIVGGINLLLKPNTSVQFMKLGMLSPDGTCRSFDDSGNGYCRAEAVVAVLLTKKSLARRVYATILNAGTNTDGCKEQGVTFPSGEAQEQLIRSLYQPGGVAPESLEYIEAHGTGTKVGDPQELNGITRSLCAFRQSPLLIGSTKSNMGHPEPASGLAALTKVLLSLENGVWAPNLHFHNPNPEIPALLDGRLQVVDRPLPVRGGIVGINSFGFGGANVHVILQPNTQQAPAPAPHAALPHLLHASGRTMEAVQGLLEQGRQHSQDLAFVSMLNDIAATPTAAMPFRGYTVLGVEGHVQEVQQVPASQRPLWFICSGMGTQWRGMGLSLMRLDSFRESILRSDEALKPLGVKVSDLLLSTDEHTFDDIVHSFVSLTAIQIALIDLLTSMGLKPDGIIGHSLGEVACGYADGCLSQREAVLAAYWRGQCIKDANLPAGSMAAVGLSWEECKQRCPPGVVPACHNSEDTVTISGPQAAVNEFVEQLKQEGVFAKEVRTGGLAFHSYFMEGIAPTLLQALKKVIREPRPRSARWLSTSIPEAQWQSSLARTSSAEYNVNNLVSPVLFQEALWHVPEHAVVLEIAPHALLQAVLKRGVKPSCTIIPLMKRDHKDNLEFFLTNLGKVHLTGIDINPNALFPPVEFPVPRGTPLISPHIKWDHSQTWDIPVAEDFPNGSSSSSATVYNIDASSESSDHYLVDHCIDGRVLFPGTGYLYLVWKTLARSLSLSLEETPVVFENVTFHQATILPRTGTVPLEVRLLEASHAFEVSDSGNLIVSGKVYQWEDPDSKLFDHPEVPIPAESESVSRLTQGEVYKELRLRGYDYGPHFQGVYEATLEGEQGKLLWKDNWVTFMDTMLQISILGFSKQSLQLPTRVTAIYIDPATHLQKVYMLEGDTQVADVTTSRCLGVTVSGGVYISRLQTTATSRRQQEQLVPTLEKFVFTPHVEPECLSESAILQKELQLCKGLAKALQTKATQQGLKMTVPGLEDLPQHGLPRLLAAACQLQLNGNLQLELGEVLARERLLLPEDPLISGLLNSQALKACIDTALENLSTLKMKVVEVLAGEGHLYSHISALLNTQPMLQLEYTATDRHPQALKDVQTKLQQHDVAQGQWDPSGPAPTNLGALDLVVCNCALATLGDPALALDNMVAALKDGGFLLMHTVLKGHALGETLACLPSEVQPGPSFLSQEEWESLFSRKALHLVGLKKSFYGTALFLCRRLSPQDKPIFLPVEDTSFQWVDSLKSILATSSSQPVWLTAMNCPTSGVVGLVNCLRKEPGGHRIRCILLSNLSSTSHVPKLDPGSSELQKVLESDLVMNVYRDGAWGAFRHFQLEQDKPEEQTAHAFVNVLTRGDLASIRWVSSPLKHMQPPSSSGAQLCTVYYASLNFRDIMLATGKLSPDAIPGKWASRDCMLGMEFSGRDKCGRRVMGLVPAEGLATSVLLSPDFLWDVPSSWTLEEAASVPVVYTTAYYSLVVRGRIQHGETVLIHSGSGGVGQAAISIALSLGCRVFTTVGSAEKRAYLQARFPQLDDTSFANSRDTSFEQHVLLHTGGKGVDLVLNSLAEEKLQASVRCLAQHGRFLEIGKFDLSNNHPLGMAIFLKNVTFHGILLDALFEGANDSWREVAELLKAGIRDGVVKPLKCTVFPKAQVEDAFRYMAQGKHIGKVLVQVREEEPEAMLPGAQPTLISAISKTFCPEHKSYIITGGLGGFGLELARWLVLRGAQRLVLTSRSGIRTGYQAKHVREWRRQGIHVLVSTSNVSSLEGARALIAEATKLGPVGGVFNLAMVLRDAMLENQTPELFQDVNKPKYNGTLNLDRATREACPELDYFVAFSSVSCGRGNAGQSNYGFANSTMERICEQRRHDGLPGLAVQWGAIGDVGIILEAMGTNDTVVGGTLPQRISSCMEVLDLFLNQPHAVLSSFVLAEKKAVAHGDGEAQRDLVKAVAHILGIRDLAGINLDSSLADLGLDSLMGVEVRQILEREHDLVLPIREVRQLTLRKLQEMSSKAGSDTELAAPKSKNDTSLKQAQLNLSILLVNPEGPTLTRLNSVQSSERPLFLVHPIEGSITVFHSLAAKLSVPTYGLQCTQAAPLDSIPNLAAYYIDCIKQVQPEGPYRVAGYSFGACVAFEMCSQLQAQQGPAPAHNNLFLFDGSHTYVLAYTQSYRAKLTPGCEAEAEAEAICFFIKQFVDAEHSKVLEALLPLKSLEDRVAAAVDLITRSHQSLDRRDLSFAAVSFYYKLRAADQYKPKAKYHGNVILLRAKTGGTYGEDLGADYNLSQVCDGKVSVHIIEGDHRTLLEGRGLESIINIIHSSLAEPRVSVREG
measured property: pIC50
// pIC50 here means minus log10 of the molar concentration (mol/L)

With Fatty acid synthase (Rattus norvegicus, UniProt P12785) as the test system, `N#Cc1ccc(C2CCN(C(=O)c3cccc(-c4nc5cc(N6CCCC6)ncc5[nH]4)c3)CC2)cc1` showed pIC50 of 5.53

###

# assay name: in vitro
# condition context: human, huh-7
Property: CC50 at 72 h; scope: individual compounds

Example entries and their recorded answers appear below.
N#Cc1ccc(C2CCN(C(=O)c3cccc(-c4nc5cc(N6CCCC6)ncc5[nH]4)c3)CC2)cc1; > 3000 nM
Cc1c(C(=O)N2CCC(c3ccc(C#N)cc3)CC2)cccc1-c1nc2cc(N3CCCC3)ncc2[nH]1; 1900 nM

Next compound, please.
# compound `Cc1ccc(-c2nc3cc(N4CCCC4)ncc3[nH]2)cc1C(=O)N1CCC(c2ccc(C#N)cc2)CC1` ; its CC50 at 72 h = 8600 nM

###

# Tested on: Hepatitis C virus
# assay name: microbe, parasite or virus in culture
# condition context: genotype 1b, Huh-7, 72 h
measured property: pEC50
// pEC50 here means minus log10 of the molar concentration (mol/L)

Example entries and their recorded answers appear below.
Cc1ccc(-c2nc3cc(N4CCCC4)ncc3[nH]2)cc1C(=O)N1CCC(c2ccc(C#N)cc2)CC1; 6.82
Cc1cc(C)c(-c2nc3cc(N4CCOCC4)ncc3[nH]2)cc1C(=O)N1CCC(c2ccc(C#N)cc2)CC1; 7.40
Cc1cc(C)c(-c2nc3nc(N4CCC4)ccc3[nH]2)cc1C(=O)N1CCC(c2ccc(C#N)cc2)CC1; 6.51

# compound `COCCN(C)c1cc2nc(-c3cc(C(=O)N4CCC(c5ccc(C#N)cc5)CC4)c(C)cc3C)[nH]c2cn1` ; its pEC50 = 7.08

# compound `Cc1cc(C)c(-c2nc3cc(S(C)(=O)=O)cnc3[nH]2)cc1C(=O)N1CCC(c2ccc(C#N)cc2)CC1` ; its pEC50 = 6.89

# compound `Cc1ccc(C(=O)N2CCC(c3ccc(C#N)cc3)CC2)cc1-c1nc2cc(N3CCCC3)ncc2[nH]1` ; its pEC50 = 6.76

# compound `N#Cc1ccc(C2CCN(C(=O)c3cccc(-c4nc5cc(N6CCCC6)ncc5[nH]4)c3)CC2)cc1` ; its pEC50 = 6.26

# compound `Cc1ccc(C(=O)N2CCC(c3ccc(C#N)cc3)CC2)cc1-c1nc2cc(N3CCN(C)CC3)ncc2[nH]1` ; its pEC50 = 6.08

# compound `Cc1ccc(C(=O)N2CCC(c3ccc(C#N)cc3)CC2)cc1-c1nc2cc(N3CCC3)ncc2[nH]1` ; its pEC50 = 7.04

###

# assay name: in vitro
# condition context: dog, MDCK
measured property: Papp
Units required after the number.

# compound `Cc1ccc(C(=O)N2CCC(c3ccc(C#N)cc3)CC2)cc1-c1nc2cc(N3CCCC3)ncc2[nH]1` ; its Papp = 8 ×10⁻⁶ cm/s

###

Property: CC50 at 72 h; scope: individual compounds
# assay name: in vitro
# condition context: human, huh-7

Example entries and their recorded answers appear below.
Cc1cc(C)c(-c2nc3nc(N4CCC4)ccc3[nH]2)cc1C(=O)N1CCC(c2ccc(C#N)cc2)CC1; > 3 µM
Cc1cc(C)c(-c2nc3cc(S(C)(=O)=O)cnc3[nH]2)cc1C(=O)N1CCC(c2ccc(C#N)cc2)CC1; > 20 µM

# compound `Cc1cc(C(=O)N2CCC(c3ccc(C#N)cc3)CC2)cc(-c2nc3cc(N4CCCC4)ncc3[nH]2)c1` ; its CC50 at 72 h = > 10 µM

# compound `Cc1cc(C)c(-c2nc3cc(N4CCOCC4)ncc3[nH]2)cc1C(=O)N1CCC(c2ccc(C#N)cc2)CC1` ; its CC50 at 72 h = > 3 µM

# compound `Cc1ccc(C(=O)N2CCC(c3ccc(C#N)cc3)CC2)cc1-c1nc2cc(N3CCCC3)ncc2[nH]1` ; its CC50 at 72 h = > 20 µM

# compound `Cc1ccc(C(=O)N2CCC(c3ccc(C#N)cc3)CC2)cc1-c1nc2cc(N3CCC3)ncc2[nH]1` ; its CC50 at 72 h = > 20 µM

# compound `Cc1ccc(C(=O)N2CCC(c3ccc(C#N)cc3)CC2)cc1-c1nc2cc(N3CCN(C)CC3)ncc2[nH]1` ; its CC50 at 72 h = 15 µM

# compound `COCCN(C)c1cc2nc(-c3cc(C(=O)N4CCC(c5ccc(C#N)cc5)CC4)c(C)cc3C)[nH]c2cn1` ; its CC50 at 72 h = > 20 µM
